- Test system: Pichinde virus
- MEASUREMENT DESCRIPTION: Antiviral activity against Pichinde virus infected in african green monkey Vero cells assessed as reduction of viral replication
- Type: functional, organism-based
PROPERTY NAME: pEC50
Field pEC50 (float): negative decimal logarithm of the concentration in molar.

Task: Need pEC50, item `Nc1ncc(Br)c2c1ncn2[C@@H]1C=C(CO)[C@@H](O)[C@H]1O`
Output: 5.92

----------
- Test system: Cytomegalovirus
- MEASUREMENT DESCRIPTION: Antiviral activity against Cytomegalovirus infected in HEL assessed as reduction of viral replication
- Format: functional, organism-based
- REPORTED CONDITIONS: Human betaherpesvirus 5
PROPERTY NAME: pEC50
Field pEC50 (float): negative decimal logarithm of the concentration in molar.

Task: What measured pEC50 is associated with `Nc1ncc(Br)c2c1ncn2[C@@H]1C[C@H](CO)[C@@H](O)[C@H]1O` on Cytomegalovirus?
Output: 5.46
